System: HT29 colon
Experiment: NCI tumour cell line growth inhibition, 48 h
endpoint-name: TGI (µM)
Use µM as the unit, but write only the number.

Reported TGI for COc1ccc2c(c1)OC(N)=C(C#N)C2c1ccc(F)cc1 (stereo unspecified) was 13.5

get_value(item= "CC(C)CCc1c(Cl)nc(Cl)nc1Cl" , readout=TGI) returns 28.9

Memo: CC(C)(C)N(Cc1ccoc1)C(=O)/C=C\S(=O)c1ccccc1 (stereo unspecified) , reported TGI: 97.7

Input CSC(=S)OC1C(CO[Si](C)(C)C(C)(C)C)OC2OC(C)(C)OC21 (stereo unspecified) . Output TGI: 24.7

====

System: OVCAR-5 ovarian
Experiment: NCI tumour cell line growth inhibition, 48 h
Kindly state TGI for each of the entries shown.
Respond numerically; units are µM and should not be typed.

The recorded TGI for "C=C1C(=O)O[C@H]2[C@H]1CC/C(CNS(=O)(=O)c1cccc3ccccc13)=C\CC[C@@]1(C)O[C@@H]21" is 8.44

Documented TGI of C=C(C)[C@H](O)C(O)CC(C)[C@@H]1CCC23CC12CCC1[C@@]2(C)CCC(OC(C)=O)C(C)(C)C2CC(OC2OC(COC(C)=O)C(O)C(O)C2O)[C@]13C (some centres undefined) : 13.9
